Value source: the supplement of paper PMC10567573

B1: ZNF449 (parent)
chain: EPHKCPECGKRFLRSSDLYRHQRL

- Variants of: B1
- measurement.description: protein stability index of a GFP-peptide fusion (GPS, HEK-293T) (PSI 1-6); higher = more stable;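 also: lentivirally expressed fusions sorted by FACS into six bins by GFP to DsRed ratio, PSI derived from sequencing read proportions per bin multiplied by bin number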
- run.conditions: c terminus: a fixed tail appended
Lab note: anything with protein stability index at or over 4 counts as t; the rest go in f.

EPHKCPECGKRFLRSSDLYRHQFL [R23F]; f
EPHKCPECGKRFLRSSDLYRHQHL [R23H]; f
EPHKCPECGKRFLRRSDLYRHQRL [S15R]; f
EPHKCPECGKRFLRSADLYRHQRL [S16A]; f
EPHKCAECGKRFLRSSDLYRHQRL [P6A]; f

Exercise: Quick check: does EPHKCPECGKRFLRSSDLMRHQRL [Y19M] have protein stability index greater than or equal to 4?
Solution: f

Exercise: And then EPHSCPECGKRFLRSSDLYRHQRL [K4S] , what is it?
Solution: t

Exercise: EPHKCPECGKFFLRSSDLYRHQRL [R11F] , same question.
Solution: t

Exercise: Moving on to EPHKCPECGKRFLRSSDLYRHWRL [Q22W]
Solution: f

Exercise: Next record, please: EPHKCPECGKAFLRSSDLYRHQRL [R11A]
Solution: t
